B1: library; a variant is named by its letters at N, in order (parent)
chain: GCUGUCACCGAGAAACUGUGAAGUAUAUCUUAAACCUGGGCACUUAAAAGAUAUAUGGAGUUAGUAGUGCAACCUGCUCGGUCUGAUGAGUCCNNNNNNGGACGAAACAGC

# Variants of: B1
# ASSAY_SUMMARY: normalized RNA/DNA level without ligand (relative to sTRSVctl = 100) (log10 (% of sTRSVctl)); HEK293T; ligand: cyclic di-GMP (c-di-GMP-II aptamer); higher = less ribozyme self-cleavage, higher mRNA level
# RUN_PARAMETERS: reporter: mCherry (pCS4076), ligand present: no
List of normalized RNA/DNA level without ligand (log10) values.
// return a plain number; no unit text

The cases that follow already have their normalized RNA/DNA level without ligand (log10) on record.
AGCGUA : 1.55
UCAACG : 1.77
CAUAGA : 1.54

Now look at this entry.
*Q* Entry UCCCAC has what normalized RNA/DNA level without ligand (log10)?
*A* 1.76
